Cited source for all entries: PubChem BioAssay (NCATS)

- ASSAY METHOD TEXT: Cellular viability qHTS for adrenocortical cancer (ACC) cell line NCI-H295R (AID 1963990); note: nearly all actives have a fitted effect of over 60% in size
- CONDITION LABEL: CellTiter-Glo ATP luminescence, 48 h; series mostly up to 46.1 µM
Records with an inconclusive call do not appear. Active and inactive are the calls of the source. Calls come from the whole dose curve; as a rule, active = well fitted cell-killing curve with a large enough effect; inconclusive = small, poorly fitted or top-dose-only effect; inactive = flat fitted curve, though single readings scatter.
Choose one outcome from this list and give only that: active, inactive

Lookup: For Cc1ncc(OC[C@@]2(c3cccc(F)c3)C[C@H]2C(=O)Nc2ccc(F)cn2)c(C)n1 , which call appears in the assay record?
Found: inactive

Lookup: Hi, do you know how Cc1cccc(Cc2cnc[nH]2)c1C came out in this test?
Found: inactive

Lookup: Recorded call for CN1C(=O)[C@@H](NC(=O)[C@H](CCC(F)(F)F)[C@H](CCC(F)(F)F)C(N)=O)N=C(c2ccccc2)c2ccccc21 ?
Found: inactive

Lookup: Outcome? Fc1cc(Br)ccc1CBr
Found: inactive

Lookup: Record request — test call for COc1nn(CSP(=S)(OC)OC)c(=O)s1
Found: active

Lookup: Just curious, what result did O=C(CCCCl)c1ccc(F)cc1 get here?
Found: inactive

Lookup: Which outcome did this test record for the molecule C[C@]12CC[C@H](O)CC1=CC[C@@H]1[C@@H]2CC[C@]2(C)C(=O)CC[C@@H]12 ?
Found: inactive

Lookup: Please indicate how the test categorized C#CC1(O)CCC2C3CCC4=CC(=O)CCC4(C)C3CCC21C (stereo not given) .
Found: inactive

Lookup: # fetch the recorded call for O=c1[nH]c2ccccc2n1C1CCN(CCCC(c2ccc(F)cc2)c2ccc(F)cc2)CC1 here
Found: active

Lookup: Hi, sorry to bother you, what did the test record for CNC(=O)Oc1cccc2ccccc12 ?
Found: inactive

Lookup: What classification did CC(=O)Nc1cc([As](=O)(O)O)ccc1O end up with in this test?
Found: inactive

Lookup: Recorded test outcome, item COP(=O)(OC)C(O)C(Cl)(Cl)Cl (stereo not given)
Found: inactive

Lookup: Recorded call for CC1OC(C)OC(C)O1 (stereo not given) ?
Found: inactive

Lookup: Status in this test for COc1ccc2c(C(=O)c3ccc(Cl)cc3)c(C)n(CC(=O)O)c2c1 ?
Found: inactive

Lookup: Short answer needed: outcome of this test for CC(C)=CC1C(C(=O)OCc2cccc(Oc3ccccc3)c2)C1(C)C (stereo not given) ?
Found: inactive

Lookup: Write down the call the test reported for this molecule. Item: CCN(CC)CCOC(=O)C(C)(c1ccccc1)c1ccccc1
Found: inactive

Lookup: Status in this test for C=C(C)[C@H]1Cc2c(ccc3c2O[C@@H]2COc4cc(OC)c(OC)cc4[C@@H]2C3=O)O1 ?
Found: active

Lookup: What did this assay record as the result for C[C@]12CC[C@H]3[C@@H](CCC4=CC(=O)CC[C@@H]43)[C@@H]1CC[C@@H]2OC(=O)CCC1CCCCC1 ?
Found: inactive

Lookup: Which outcome was entered for the molecule CO[C@]12CC[C@@]3(C[C@@H]1[C@](C)(O)C(C)(C)C)[C@@H]1Cc4ccc(O)c5c4[C@@]3(CCN1CC1CC1)[C@H]2O5 in this test?
Found: active

Lookup: Call for entry Nc1ccc([N+](=O)[O-])cc1 :
Found: inactive

Lookup: # fetch the recorded call for NC1=NC(=O)N2CC12 (stereo not given) here
Found: inactive

Lookup: Please share the test call associated with C=C[C@H]1CN2CCC1C[C@@H]2[C@@H](O)c1ccnc2ccccc12 (stereo not given in full) .
Found: inactive

Lookup: For this molecule, state the assay outcome: CCNC(=O)C[C@@H]1N=C(c2ccc(Cl)cc2)c2cc(OC)ccc2-n2c(C)nnc21
Found: inactive

Lookup: Outcome logged for COP(=S)(OC)Oc1ccc(S(N)(=O)=O)cc1 in this assay:
Found: inactive

Lookup: Dear colleague, could you share the recorded outcome for Oc1ccc(Cl)cc1 when you have a moment?
Found: inactive

Lookup: Could you check what this test reported for COc1cc(C)[nH]c(=O)c1CNC(=O)c1c(C)n([C@H](C)C2CCN(CC(F)(F)F)CC2)c2ccccc12 ?
Found: inactive

Lookup: Recorded call for CC[N+](CC)(CC)CC ?
Found: inactive

Lookup: Would you mind telling me which call this test gave N#Cc1nn(-c2c(Cl)cc(C(F)(F)F)cc2Cl)c(N)c1S(=O)C(F)(F)F (stereo not given) ?
Found: active

Lookup: Lab log entry: CCN[C@H](C)Cc1cccc(C(F)(F)F)c1 — outcome as called in the assay?
Found: inactive

Lookup: Please indicate how the test categorized CCCC(C)C1(CC)C(=O)N=C(S)NC1=O (stereo not given) .
Found: inactive

Lookup: So what was the verdict on O=C(Nc1ccncc1)C(=O)c1cn(Cc2ccc(Cl)cc2)c2ccccc12 in this test?
Found: active

Lookup: Dear colleague, could you share the recorded outcome for CC[C@@H](CO)NC(=O)[C@@H]1C=C2c3cccc4[nH]cc(c34)C[C@H]2N(C)C1 when you have a moment?
Found: inactive

Lookup: Call for entry CN1CCC(O)(c2ccc(F)cc2)C(C(=O)c2ccc(F)cc2)C1 (stereo not given) :
Found: inactive

Lookup: Given CC(NC(C)(C)C)C(=O)c1cccc(Cl)c1 (stereo not given) , state the outcome it received in this test.
Found: inactive

Lookup: Please share the test call associated with C/C=C(/C)C(=O)O[C@H]1C(C)=C2[C@H]([C@@H]1OC(=O)CCCCCCC)[C@@](C)(OC(C)=O)C[C@H](OC(=O)CCC)[C@@]1(O)[C@H]2OC(=O)[C@@]1(C)O .
Found: active

Lookup: Could you please tell me the result logged for CC(C)=CCN1CC[C@@]2(C)c3cc(O)ccc3C[C@@H]1[C@@H]2C in this assay?
Found: active

Lookup: Please let me know the test result on file for CNCC(=O)c1ccc(O)c(O)c1 .
Found: inactive

Lookup: Write down the call the test reported for this molecule. Item: Clc1ccc(CSC(Cn2ccnc2)c2ccc(Cl)cc2Cl)cc1 (stereo not given)
Found: active

Lookup: State the result this test recorded for CC(C)(NC(=O)O[C@@H]1CN2CCC1CC2)c1csc(-c2ccc(F)cc2)n1 .
Found: inactive

Lookup: Called result for CC1=C2[C@H]3OC(=O)[C@@H](C)[C@@H]3CC[C@@]2(C)C=CC1=O
Found: inactive

Lookup: Hi, sorry to bother you, what did the test record for C[N+]1(C)[C@@H]2CC[C@H]1CC(OC(=O)C(CO)c1ccccc1)C2 (stereo not given in full) ?
Found: inactive

Lookup: Check the results log: what was the call for C1CN2CCC1CC2 ?
Found: inactive

Lookup: Which result was noted for this molecule in the test: O=C(O)Cc1ccccc1
Found: inactive

Lookup: Answer briefly: the call reported for C[C@@H]1CN(C2CCC(C#N)(c3ccc(F)cc3)CC2)CC[C@]1(C(=O)O)c1ccccc1 (stereo not given in full) in this assay.
Found: inactive

Lookup: How was CCOC(=O)CC(SP(=S)(OC)OC)C(=O)OCC (stereo not given) classified in this test?
Found: inactive
